# PROTOCOL: NCI Yeast Anticancer Drug Screen. Data for the bub3 strain (AID 167)
# MEASUREMENT_CONTEXT: S. cerevisiae bub3 mutant strain, at 50.0 µM
# Procedure: Growth inhibition of yeast strains with defined genetic alterations is measured as a screen for potential anti-cancer activity. Selected strains with alterations in DNA damage repair or cell cycle control were exposed to compounds and growth inhibition was measured relative to vehicle treated controls. The strain used in this assay is bub3
Compounds without any hit were thinned out: in the full panel of roughly 79,000, 15% have a hit. Calls of active or inactive are those of the source. No stated cut-off is given here; in the data, active means growth inhibition above about 70%; inactive means the rest.
Possible outcomes: active, inactive

COMPOUND	DISCRETE_LABEL
Cc1ccc(NC(=S)SCc2ccc([N+](=O)[O-])cc2)cc1C	inactive
COc1ccc2nc(C)cc(N/N=C/c3cccc(C)n3)c2c1	inactive
COc1cccc(/C(C#N)=N/NC(=O)c2nc[nH]c2C)c1	inactive
COC(=O)/C(=C\c1ccccc1[N+](=O)[O-])c1ccc2c(c1)OCO2	inactive
COc1ccc(C2C(=O)C(Cl)N2Nc2nc(C)cc(=O)[nH]2)cc1OC (centres undefined)	inactive
CC1=CCCCC1(C)/C(C)=N/Nc1ccc([N+](=O)[O-])cc1[N+](=O)[O-] (centres undefined)	inactive
CCCCCCCCCCCCCCCCCCCOc1ccc(OCCCCCCCCCC)cc1	inactive
CC(C)NC(=O)CC(NCc1ccccc1)C(=O)O (centres undefined)	inactive
CCOC(=O)CC(=O)C(=O)OCC	inactive
CN(C)c1ccc([N+](=O)[O-])c2c1CCC2	inactive
O=C(O)c1cc(Br)cc([N+](=O)[O-])c1	inactive
C/C(=C\CNc1ncnc2c1ncn2CCC(=O)OC(C)(C)C)CO	inactive
O=C1c2ccccc2C2NCCCN12 (centres undefined)	inactive
N#CC1(Cc2ccccc2[N+](=O)[O-])c2ccccc2C2C(N1C(=O)c1ccccc1)C2(Cl)Cl (centres undefined)	inactive
Cc1ccc(NC(=O)c2cc(S(=O)(=O)n3cc[nH]c3=O)c(S)cc2Cl)cc1	inactive
COC(=O)[C@]1(C)CCC[C@@]2(C)[C@H]1CC=C1C=C(C(C)C)CC[C@@H]12	inactive
CNC(=O)NC1NC(=O)N(C)C1=O (centres undefined)	inactive
CCC(C)(C)c1ccc(OCCOc2ccc(C(=O)O)cc2[N+](=O)[O-])cc1	inactive
COc1ccccc1NC(=S)N/C=C(\C#N)c1nc2ccccc2s1	inactive
CCCCCCC1(C)CCC(=O)O1 (centres undefined)	inactive
C/C(C=C(C#N)C#N)=C\c1cccc(F)c1	inactive
CC(=O)[OH+]c1c(I)cc(I)cc1C(=O)[O-].CC(=O)[OH+]c1c(I)cc(I)cc1C(=O)[O-].[Cu+2]	inactive
CCN(CC)C(=O)c1ccc[n+](Cc2ccc(Cl)c(Cl)c2)c1	inactive
CCCCCCCCCCCCCCCCS(=O)(=O)N/N=C(/c1cccc(N)c1)N1CCOCC1	inactive
O=C1CSC=NN1c1ccccc1	inactive
CCc1c(Cl)nc(N)nc1Nc1ccc(C)cc1	inactive
CN(C)Cc1[nH]c(=O)[nH]c(=O)c1O	inactive
CCNC(=S)N/N=C/c1cc(OC)ccc1O	inactive
CC(CCC(=O)O)[C@H]1CCC2[C@@H]3C(=O)C[C@@H]4CC(O)CC[C@]4(C)C3CC[C@@]21C (some centres undefined)	inactive
O=C(CCc1ccccc1)NC(=S)Nc1cc(C(F)(F)F)ccc1Cl	inactive
CC(=O)c1ccccc1	inactive
CNC(C#N)c1ccc(OC)cc1 (centres undefined)	inactive
CC(O)CCNC(=O)c1ccccc1 (centres undefined)	inactive
CCOc1ccc(NC(C)=O)c([N+](=O)[O-])c1	inactive
COCOC(C)=O	inactive
CCCCCCCCC(=O)N1SC(NC(=O)OC)=Nc2ccccc21	active
CC1OCOC1C1OCOCC1OC(=O)c1ccccc1 (centres undefined)	inactive
Nc1nc(-c2ccccc2)c(N=Nc2cc(Cl)ccc2Cl)s1	inactive
CCOC(=O)NC(Nc1cc(Cl)ccc1OC)(C(F)(F)F)C(F)(F)F	inactive
N=C(N=C(C(Cl)(Cl)Cl)C(Cl)(Cl)Cl)N=C(C(Cl)(Cl)Cl)C(Cl)(Cl)Cl	inactive
Cc1nn(C(=O)c2ccncc2)c2c1C(c1ccccc1[N+](=O)[O-])SC(N)=N2 (centres undefined)	inactive
COc1ccc(O)c2c(=O)ccccc12	inactive
CC(=O)Nc1nnc(S(C)(=O)=O)s1	inactive
CCc1cc(C(C)(C)C)c(O)c(C(C)(C)C)c1	inactive
Nc1cccc2c1-c1ccc([N+](=O)[O-])cc1C2=O	inactive
CCS(=O)CCC(N)C(=O)O (centres undefined)	inactive
NC(=O)C1CCCN1C(=O)C(Cc1cnc[nH]1)NC(=O)C1CCCC1 (centres undefined)	inactive
CC(=O)CC(=O)C(F)(F)F	inactive
N#CC(C#N)=CNC(=S)c1ccncc1	inactive

* * *

growth inhibition values, listed per item
# PROTOCOL: NCI Yeast Anticancer Drug Screen. Data for the bub3 strain (AID 167)
# MEASUREMENT_CONTEXT: S. cerevisiae bub3 mutant strain, at 50.0 µM, hits give high values
Compounds without any hit were thinned out: in the full panel of roughly 79,000, 15% have a hit.

COMPOUND	growth inhibition (%)
O=S1(=O)CS/C(=N/C(=S)N(Cc2ccccc2)Cc2ccccc2)N1c1ccccc1	-3.85
CCOCCn1c(=O)cc(C)c2ccccc21	14.2
CC1c2ccccc2-c2ccccc2N1C(=O)c1cccc(C(=O)N2c3ccccc3-c3ccccc3C2C)n1 (stereo not drawn)	-2.1
OCC1C=Cc2ccccc21 (stereo not drawn)	14.5
O=c1oc2ccc3ccccc3c2c(-c2ccc(O)cc2)c1-c1ccccc1	98.2
CN1C(=O)n2c(nc3ccccc32)C(N2CCOCC2)(N2CCOCC2)C1=O	31.4
COCC1(c2ccccc2)C(=O)N(C)C(=O)N1C (stereo not drawn)	-9.85
O=CNc1cc([N+](=O)[O-])ccc1OCc1ccccc1	12.2
C/C(CC(=O)NCCc1ccccc1)=N\NS(=O)(=O)c1ccc(C)cc1	-4.2
C/C(=N/N(CCCCN(/N=C(/C)c1ccccc1)c1ccccc1)c1ccccc1)c1ccccc1	1.55
COC(=O)[C@H]1O[C@H]1c1cccc[n+]1[O-]	9.3
Oc1ccc(Br)cc1C=Nc1ccccc1	26.2
CCCC(=O)N[C@H]1C[C@H]2CC[C@@]1(C)C2(C)C	10.3
CC(C)C12Cc3c(ccc4ccccc34)OC1(C)Oc1ccc3ccccc3c1C2 (stereo not drawn)	-6.8
NNC(=O)c1ccc[n+](CCc2ccccc2)c1	-30.4
O=C(Nc1nncs1)c1ccncc1	-28.8
Cc1c(C#N)c2n(c1C)CC(=O)N2	-20.4
O=P(c1ccccc1)(c1ccccc1)c1ccccc1OCCOCCOc1ccccc1P(=O)(c1ccccc1)c1ccccc1	0.35
CC(O)CCCCC(O)CCC[C@H](O)[C@H]1CCC([C@H]2CCC([C@@H](O)CCCCCCCCCCCCC3=C[C@H](C)OC3=O)O2)O1 (stereo partly drawn)	-16.7
Cc1ccc(S(=O)(=O)N/N=C2\CCC3CC2C3(C)C)cc1 (stereo not drawn)	-6.05
CCC/C=N/Nc1ccc([N+](=O)[O-])cc1[N+](=O)[O-]	0.9
Oc1c(Br)cc(Br)cc1/C=C/NC(=S)NC1CC2CC1C1C=CCC21 (stereo not drawn)	5.15
C[P+](Cc1ccc([N+](=O)[O-])cc1)(c1ccccc1)c1ccccc1	-9.8

* * *

# PROTOCOL: NCI Yeast Anticancer Drug Screen. Data for the cln2 rad14 strain (AID 165);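 further: 0% = growth equal to vehicle treated cultures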
# MEASUREMENT_CONTEXT: S. cerevisiae cln2 rad14 strain, at 50.0 µM, hits give high values
Compounds without any hit were thinned out: in the full panel of roughly 79,000, 15% have a hit. Where a SMILES comes first, the peptide text is derived from it. The star is where a group is joined. Boc = CC(C)(C)OC(=O)*; OBn = c1ccc(CO*)cc1

COMPOUND	growth inhibition (%)
CN(C)S(=O)(=O)N(C)C	6.1
CC(NC(=O)C(NC(=O)OC(C)(C)C)C(C)C)C(=O)N1CCCC1C(=O)NCC(=O)NC(C(=O)NCC(=O)OCc1ccccc1)C(C)C (stereo unspecified) (Boc-VAPGVG-OBn; configuration not given here)	6.85
CCc1ccc2c(OC(C)=O)c3ccccc3c(OC(C)=O)c2c1	18.2
O=C(NC(=O)C1CCC(=O)N1Cc1ccccc1)NC1CCC(=O)N1Cc1ccccc1 (stereo unspecified)	1.8
CC(=O)Nc1nnc(SCc2ccccc2)s1	-10
C/C(=N\NC(N)=S)C(CN(CC(C)C)CC(C)C)C(=O)Nc1ccc(C)cc1C (stereo unspecified)	16

* * *

# PROTOCOL: NCI Yeast Anticancer Drug Screen. Data for the rad50 strain (AID 155);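 further: 0% = growth of vehicle-only cultures of the same strain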
# MEASUREMENT_CONTEXT: S. cerevisiae rad50 strain growth inhibition; at 50.0 µM; hits give high values
About 79,000 compounds went through this panel and 15% of them were active in at least one assay; those are over-represented in the sample as a whole. Active and inactive are the calls of the source. No stated cut-off is given here; in the data, active means growth inhibition above about 70%; inactive means the rest.
Measured growth inhibition values are reported for all entries that follow.
MEASURED_METRIC: growth inhibition

COMPOUND	MEASURED_METRIC	MEASURED
CC1=CC(=O)C(=O)C2=C1OC1(C2)C(C)CCC2C3(C)CCC(O)C(C)(C)C3CCC21C (configuration not stated)	growth inhibition	86.5% (active)
COC(=O)C(C#N)(CCc1ccc([N+](=O)[O-])cc1)CCc1ccc([N+](=O)[O-])cc1	growth inhibition	14.8% (inactive)
CC(=NCCN=C(C)c1ccccc1O)c1ccccc1O.[Cu]	growth inhibition	-17.9% (inactive)
COc1cc(-c2oc3c(OC)c(OC)cc(O)c3c(=O)c2OC)ccc1O	growth inhibition	11.7% (inactive)
CCOC(=O)c1c(O)csc1N	growth inhibition	7.85% (inactive)
Oc1ccccc1C=NCCCN=Cc1ccccc1O	growth inhibition	12.4% (inactive)
Clc1cccc(-c2sc(-c3cccs3)cc2Cc2cccs2)c1	growth inhibition	-42.8% (inactive)
CCOc1ccc(C2=NN(CC)C(=O)C(C3C(=O)N(c4ccccc4)N=C3C)C2)cc1 (configuration not stated)	growth inhibition	4.8% (inactive)
COc1ccc(C(=O)c2ccc(Cl)s2)cc1	growth inhibition	8.4% (inactive)
Cc1ccc(OS(=O)(=O)NC(=O)NCc2ccco2)cc1	growth inhibition	18.8% (inactive)
CC(C)=CCc1ccc2c(c1)CCCN2C	growth inhibition	-44.4% (inactive)
O=C1c2ccccc2C(=O)N1Cl	growth inhibition	8.7% (inactive)
CN1C(=O)C2CC(=O)N(Cc3ccccc3)C(=O)C2C1=O (configuration not stated)	growth inhibition	0.5% (inactive)
CCN(CC)C1C(=O)NC1C#Cc1ccccc1 (configuration not stated)	growth inhibition	19% (inactive)
CCCCCCCCCCCCOc1ccc(C(C)(C)C)cc1	growth inhibition	-12.2% (inactive)
C[C@]12CCC(=O)C=C1CC[C@@H]1[C@@H]2[C@@H](O)C[C@@]2(C)[C@H]1CC[C@]2(O)C(=O)CO	growth inhibition	12.7% (inactive)
COc1ccccc1NC(=O)c1nc2ccc([N+](=O)[O-])cc2nc1C	growth inhibition	21.4% (inactive)
CNc1ccc(C(=O)O)cc1	growth inhibition	-7.8% (inactive)
CC(=O)CC(=O)CC(C)C.CC(=O)CC(=O)CC(C)C.[Cu]	growth inhibition	17.2% (inactive)
Cc1cc2c(=O)c(C(=O)O)c[nH]c2cc1-n1cccc1	growth inhibition	41.8% (inactive)
CN(Cc1cnc2nc(N)nc(N)c2n1)c1ccc(C(=O)NC(CCC(=O)NC(CCC(=O)O)C(=O)O)C(=O)O)cc1 (configuration not stated)	growth inhibition	34.7% (inactive)
CC(C)(C)OC[C@H](O)CC#N	growth inhibition	-8.2% (inactive)
C[N+](C)(C)C1CC([N+](C)(C)C)C2c3ccccc3C21 (configuration not stated)	growth inhibition	-15.2% (inactive)
CN1CCN(C2=NCCO2)CC1	growth inhibition	6.4% (inactive)
NC(N)=NS(=O)(=O)c1ccc(Nc2c3ccccc3nc3c(C(=O)N4CCN(CCO)CC4)cccc23)cc1	growth inhibition	-0.4% (inactive)
O=c1/c(=C/c2ccc(Cl)cc2Cl)sc2nc3ccccc3n12	growth inhibition	4.1% (inactive)
COc1cccc(C[n+]2cc([O-])on2)c1	growth inhibition	-16.1% (inactive)
O/N=C/c1ccc(O)c(O)c1	growth inhibition	16.4% (inactive)
NCC(=O)c1cc2ccccc2[n+]([O-])c1	growth inhibition	1.6% (inactive)
O=C(O)CNC(=O)c1ccc2cc(C(=O)N3CC(CCl)c4ccc([N+](=O)[O-])cc43)[nH]c2c1 (configuration not stated)	growth inhibition	-6.45% (inactive)
COC(=O)c1ccc(/C=C2\Oc3ccccc3C2=O)cc1	growth inhibition	-54.1% (inactive)
CCOC(=O)COc1cc(C)c2ccc(=O)oc2c1	growth inhibition	3.9% (inactive)
NCC(=O)Nc1ccc(C(=O)O)cc1	growth inhibition	28.8% (inactive)
Cc1nc(C)c(N2CCN(CN)CC2)c(=O)[nH]1	growth inhibition	-45.2% (inactive)
CC1OC(O[C@@H]2OC=C(C=O)[C@@]3(O)CC[C@H](C)[C@@H]23)C(O)C(O)C1O (some centres not stated)	growth inhibition	16.2% (inactive)
COC(=O)c1s/c(=N\C(=S)N(C)C)n(-c2ccccc2)c1C(=O)OC	growth inhibition	5.3% (inactive)
Cc1cc2c(cc1C)[n+](=O)c(C(=O)/C=C/c1ccc3c(c1)OCO3)c(C)n2[O-]	growth inhibition	5.85% (inactive)
COc1cc2ccc3c(c2cc1OC)CCc1cn[nH]c1-3	growth inhibition	2.05% (inactive)
Nc1nc(SCc2ccccc2[N+](=O)[O-])c2[nH]cnc2n1	growth inhibition	29.2% (inactive)
COc1ccc(-c2onc3ccc(Cl)cc23)cc1	growth inhibition	-9.1% (inactive)
Nc1cccc(S(=O)(=O)O)c1	growth inhibition	-27.1% (inactive)
Cc1ccc(S(=O)(=O)OC2COC3C2OC2OC(C)(C)OC23)cc1 (configuration not stated)	growth inhibition	19.1% (inactive)
COc1cc(/C=C2\SC(=S)N(/C=C(/C#N)C(=O)c3ccc4ccccc4c3)C2=O)cc(OC)c1OC	growth inhibition	21.3% (inactive)
CN(C)CCCN1C=CC(=C2C(=O)c3ccccc3C2=O)C=C1	growth inhibition	3.1% (inactive)
COC(=O)c1c2cccccc-2c(C(=O)OC)c1N	growth inhibition	15% (inactive)
NC(=NC1CCCCC1)/N=C(/N)Nc1ccc(Cl)cc1	growth inhibition	26.8% (inactive)
CCOC(=O)C(NC(=O)c1ccccc1)(C(=O)OCC)c1ccccn1	growth inhibition	8.55% (inactive)
